Just for reference, ChEMBL document CHEMBL4325833 is where these values come from.

Molecular target: UniProt Q9EPB7
Sequence (Q9EPB7 whole entry): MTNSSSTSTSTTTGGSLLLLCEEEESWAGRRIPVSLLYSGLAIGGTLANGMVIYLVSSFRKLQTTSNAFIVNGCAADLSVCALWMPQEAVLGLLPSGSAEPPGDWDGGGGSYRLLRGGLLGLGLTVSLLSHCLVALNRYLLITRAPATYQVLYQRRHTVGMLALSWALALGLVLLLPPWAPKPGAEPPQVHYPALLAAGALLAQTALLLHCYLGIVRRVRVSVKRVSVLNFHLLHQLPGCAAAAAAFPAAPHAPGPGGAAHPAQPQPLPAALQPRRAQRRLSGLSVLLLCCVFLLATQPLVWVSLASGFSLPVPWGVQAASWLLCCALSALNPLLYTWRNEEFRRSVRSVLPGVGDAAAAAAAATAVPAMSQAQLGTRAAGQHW
Experiment: Agonist activity at GPR88 in wild type mouse striatal membranes assessed as increase in [35S]-GTPgammaS binding after 1 hr by liquid scintillation counting
recorded endpoint: EC50 (nM)

CCCc1ccc(-c2ccc(N(C[C@@H](N)[C@@H](C)CC)C(=O)[C@@H]3C[C@H]3c3ccccn3)cc2)cc1    1140

* * *

System: VMAT
Test: Displacement of [3H]-dihydrotetrabenazine from VMAT in human platelet cell membranes at 10 uM after 60 mins by scintillation counting relative to control
Conditions: probe [3H]-dihydrotetrabenazine
recorded endpoint: inhibition at 1 h, 10 µM (%)

COCc1ccc(-c2ccc(N(C[C@@H](N)[C@@H](C)OC)C(=O)[C@@H]3C[C@H]3c3ccccn3)cc2)cc1    54

* * *

Observed EC50, system G protein-coupled receptor 88 (Homo sapiens).
recorded endpoint: EC50 (nM)

CCCc1ccc(-c2ccc(N(C[C@@H](N)C(C)C)C(=O)[C@@H]3C[C@H]3c3ccccn3)cc2)cc1    158
CCCc1ccc(-c2ccc(N(CCN)C(=O)[C@@H]3C[C@H]3c3ccccn3)cc2)cc1    501
CCCc1ccc(-c2ccc(N(C[C@@H](N)c3ccccc3)C(=O)[C@@H]3C[C@H]3c3ccccn3)cc2)cc1 (relative stereo)    1260
CCCc1ccc(-c2ccc(N(C[C@@H](N)Cc3ccccc3)C(=O)[C@@H]3C[C@H]3c3ccccn3)cc2)cc1    501
CCCc1ccc(-c2ccc(N(C[C@@H](N)CC(C)C)C(=O)[C@@H]3C[C@H]3c3ccccn3)cc2)cc1    126
CCCc1ccc(-c2ccc(N(CC(C)(C)N)C(=O)[C@@H]3C[C@H]3c3ccccn3)cc2)cc1 (relative stereo)    316
COc1ccc(-c2ccc(N(C[C@@H](N)[C@@H](C)OC)C(=O)[C@@H]3C[C@H]3c3ccccn3)cc2)cc1 (relative stereo)    126
CCCc1ccc(-c2ccc(N(C[C@H](C)N)C(=O)[C@@H]3C[C@H]3c3ccccn3)cc2)cc1    398
CCCc1ccc(-c2ccc(N(C[C@@H](N)[C@@H](C)OC)C(=O)[C@@H]3C[C@H]3c3ccccn3)cc2)cc1 (relative stereo)    63
